Reported binding signal by item:
Molecular target: T1, RBFOX1 RRM RbFoxmut (Fox-RRM*) (Homo sapiens, UniProt Q9NWB1 109-208, R118D;E147R;N151S;E152T)
T1 sequence: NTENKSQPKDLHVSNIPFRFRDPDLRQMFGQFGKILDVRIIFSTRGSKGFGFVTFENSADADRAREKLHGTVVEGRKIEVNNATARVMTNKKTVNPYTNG
Assay: EMSA; HiTS-Eq, 1 nM pool, 10 min; buffer printed only for the single-RNA assays: 10 mM Tris pH 7.5, 150 mM NaCl, 3.4 mM EDTA, 0.001% NP-40, 30 C
Settings: tags: His6 N-terminal (pET28a); label: 5' 32P
Whole data set: some 16,000 sequences, median “ka relative to ugcaugu” near 0.096, cut for the highest 2% near 0.35. What follows is part of a selection rich in the highest values, with near analogues and random picks from the rest.

binder: GUGCAGA (DNA:RNA) RNA: GGGAGACCGGAAUUCAGAUUGUCCGUGCAGAUUAAAUCCCGUCGUAGCCACCA DNA 1: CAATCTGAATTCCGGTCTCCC DNA 2: TGGTGGCTACGACGGGATT
binding signal: 0.12 KA relative to UGCAUGU

binder: AGGCUCU (DNA:RNA) RNA: GGGAGACCGGAAUUCAGAUUGUCCAGGCUCUUUAAAUCCCGUCGUAGCCACCA DNA 1: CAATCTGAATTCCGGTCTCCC DNA 2: TGGTGGCTACGACGGGATT
binding signal: 0.0577 KA relative to UGCAUGU

binder: GCAUAGC (DNA:RNA) RNA: GGGAGACCGGAAUUCAGAUUGUCCGCAUAGCUUAAAUCCCGUCGUAGCCACCA DNA 1: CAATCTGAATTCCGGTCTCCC DNA 2: TGGTGGCTACGACGGGATT
binding signal: 0.126 KA relative to UGCAUGU

binder: GCAUGGU (DNA:RNA) RNA: GGGAGACCGGAAUUCAGAUUGUCCGCAUGGUUUAAAUCCCGUCGUAGCCACCA DNA 1: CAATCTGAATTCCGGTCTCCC DNA 2: TGGTGGCTACGACGGGATT
binding signal: 0.753 KA relative to UGCAUGU

binder: UUACGGC (DNA:RNA) RNA: GGGAGACCGGAAUUCAGAUUGUCCUUACGGCUUAAAUCCCGUCGUAGCCACCA DNA 1: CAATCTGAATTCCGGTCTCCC DNA 2: TGGTGGCTACGACGGGATT
binding signal: 0.0823 KA relative to UGCAUGU

binder: CGAGUAU (DNA:RNA) RNA: GGGAGACCGGAAUUCAGAUUGUCCCGAGUAUUUAAAUCCCGUCGUAGCCACCA DNA 1: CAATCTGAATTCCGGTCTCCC DNA 2: TGGTGGCTACGACGGGATT
binding signal: 0.143 KA relative to UGCAUGU

binder: UUGCAUA (DNA:RNA) RNA: GGGAGACCGGAAUUCAGAUUGUCCUUGCAUAUUAAAUCCCGUCGUAGCCACCA DNA 1: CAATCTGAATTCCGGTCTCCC DNA 2: TGGTGGCTACGACGGGATT
binding signal: 0.23 KA relative to UGCAUGU

binder: GUGCAUC (DNA:RNA) RNA: GGGAGACCGGAAUUCAGAUUGUCCGUGCAUCUUAAAUCCCGUCGUAGCCACCA DNA 1: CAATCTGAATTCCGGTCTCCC DNA 2: TGGTGGCTACGACGGGATT
binding signal: 0.566 KA relative to UGCAUGU

binder: GCCAUGG (DNA:RNA) RNA: GGGAGACCGGAAUUCAGAUUGUCCGCCAUGGUUAAAUCCCGUCGUAGCCACCA DNA 1: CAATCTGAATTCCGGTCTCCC DNA 2: TGGTGGCTACGACGGGATT
binding signal: 0.12 KA relative to UGCAUGU

All figures here come from paper PMC9911399.
